- tested target: Imidazoline I2 binding sites (Oryctolagus cuniculus)
- experiment: Displacement of [3H]idazoxan from imidazoline receptor I-2 binding sites in rabbit kidney membrane
observation type: Log Ki
Answers are plain numbers.

Check out these entries, answers already filled in.
>  <molecule>
CC(Oc1ccccc1)C1=NCCN1 (stereo not drawn)

>  <Log Ki>
-5.57

$$$$
>  <molecule>
c1ccc(NCC2=NCCN2)cc1 [PHENAMAZOLINE]

>  <Log Ki>
-7.48

$$$$
>  <molecule>
CC(Oc1ccc(-c2ccccc2)cc1)C1=NCCN1 (stereo not drawn)

>  <Log Ki>
-6.74

$$$$
>  <molecule>
c1ccc(-c2ccccc2NCC2=NCCN2)cc1

>  <Log Ki>
-6.09

$$$$
>  <molecule>
c1ccc(Cc2ccccc2OCC2=NCCN2)cc1

>  <Log Ki>
-6.7

$$$$
>  <molecule>
CC(Nc1ccccc1-c1ccccc1)C1=NCCN1 (stereo not drawn)

>  <Log Ki>
-4.9

$$$$
>  <molecule>
CC(Oc1cccc(-c2ccccc2)c1)C1=NCCN1 (stereo not drawn)

>  <Log Ki>
-6.57

$$$$

Given CC(Oc1ccccc1Cc1ccccc1)C1=NCCN1 (stereo not drawn) , state its recorded Log Ki.
-5.12

---

- tested target: Adrenergic receptor alpha-2 (Rattus norvegicus) (UniProt P22086+P19328+P22909)
- experiment: pD2 is -log ED50 required to produce 50% inhibition of the twitch response in rat vas deferens (intrinsic activity in presence of clonidine) for Alpha-2 adrenergic receptor
- Type: tissue-based
Assign pD2 to each entry below.
Numbers only.

Check out these entries, answers already filled in.
>  <molecule>
C[C@H](Oc1ccccc1-c1ccccc1)C1=NCCN1

>  <tested target>
Adrenergic receptor alpha-2 (Rattus norvegicus) (UniProt P22086+P19328+P22909)

>  <meas value>
8.55

$$$$
>  <molecule>
c1ccc(-c2ccccc2OCC2=NCCN2)cc1

>  <tested target>
Adrenergic receptor alpha-2 (Rattus norvegicus) (UniProt P22086+P19328+P22909)

>  <meas value>
8.46

$$$$
>  <molecule>
C[C@@H](Oc1ccccc1-c1ccccc1)C1=NCCN1

>  <tested target>
Adrenergic receptor alpha-2 (Rattus norvegicus) (UniProt P22086+P19328+P22909)

>  <meas value>
7.4

$$$$

// for each molecule below, give its pD2
1. CC(Oc1ccccc1-c1ccccc1)C1=NCCN1 (stereo unspecified) [BIPHENYLINE]
2. c1ccc(-c2ccccc2NCC2=NCCN2)cc1
3. CC(Nc1ccccc1-c1ccccc1)C1=NCCN1 (stereo unspecified)

8.52
7.84
8.36

---

Assign Ratio to each entry below.
- experiment: Relative binding affinity for Alpha-2 adrenergic receptor and I2 imidazoline binding site (Antilog of the difference between pKi)
One number for each entry.

Check out these entries, answers already filled in.
>  <compound>
CC(Oc1cccc(-c2ccccc2)c1)C1=NCCN1 (stereo not drawn)

>  <Ratio>
2.2

$$$$
>  <compound>
CC(Oc1ccccc1Cc1ccccc1)C1=NCCN1 (stereo not drawn)

>  <Ratio>
47.9

$$$$
>  <compound>
CC(Oc1ccc(-c2ccccc2)cc1)C1=NCCN1 (stereo not drawn)

>  <Ratio>
5.8

$$$$
>  <compound>
c1ccc(NCC2=NCCN2)cc1 [PHENAMAZOLINE]

>  <Ratio>
0.46

$$$$
>  <compound>
c1ccc(Cc2ccccc2OCC2=NCCN2)cc1

>  <Ratio>
0.66

$$$$

// for each compound below, give its Ratio
1. c1ccc(-c2ccccc2NCC2=NCCN2)cc1
2. CC(Nc1ccccc1-c1ccccc1)C1=NCCN1 (stereo not drawn)
3. CC(Oc1ccccc1)C1=NCCN1 (stereo not drawn)

1: 2.3; 2: 126; 3: 27.5

---

- tested target: Adrenergic receptor alpha-2 (Rattus norvegicus) (UniProt P22086+P19328+P22909)
- experiment: Antilog of the difference between pD2 of Alpha-2 adrenergic receptor and pD2 of Alpha-1 adrenergic receptor
observation type: Ratio
Give bare numbers.

Check out these entries, answers already filled in.
>  <molecule>
CC(Nc1ccccc1-c1ccccc1)C1=NCCN1 (centres undefined)

>  <Ratio>
42.7

$$$$
>  <molecule>
c1ccc(-c2ccccc2NCC2=NCCN2)cc1

>  <Ratio>
29.5

$$$$
>  <molecule>
CC(Oc1ccc(-c2ccccc2)cc1)C1=NCCN1 (centres undefined)

>  <Ratio>
0.78

$$$$

For the next question, use this molecule.
Given CC(Oc1cccc(-c2ccccc2)c1)C1=NCCN1 (centres undefined) , state its recorded Ratio.
135

---

- tested target: Adrenergic receptor alpha-2 (Rattus norvegicus, UniProt P22086+P19328+P22909)
- Sequence (P22086 whole entry): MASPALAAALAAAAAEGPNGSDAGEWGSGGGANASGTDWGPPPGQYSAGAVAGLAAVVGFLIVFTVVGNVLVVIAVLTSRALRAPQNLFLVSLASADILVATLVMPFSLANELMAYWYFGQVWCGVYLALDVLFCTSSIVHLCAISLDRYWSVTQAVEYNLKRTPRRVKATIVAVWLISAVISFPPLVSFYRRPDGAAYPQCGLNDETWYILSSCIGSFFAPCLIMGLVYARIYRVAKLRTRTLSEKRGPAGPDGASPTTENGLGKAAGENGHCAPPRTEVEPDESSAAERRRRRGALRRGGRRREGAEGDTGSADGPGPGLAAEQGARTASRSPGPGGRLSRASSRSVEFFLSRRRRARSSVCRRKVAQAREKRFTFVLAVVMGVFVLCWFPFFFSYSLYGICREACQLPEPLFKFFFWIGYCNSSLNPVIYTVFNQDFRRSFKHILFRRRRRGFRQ
- Sequence (P19328 whole entry): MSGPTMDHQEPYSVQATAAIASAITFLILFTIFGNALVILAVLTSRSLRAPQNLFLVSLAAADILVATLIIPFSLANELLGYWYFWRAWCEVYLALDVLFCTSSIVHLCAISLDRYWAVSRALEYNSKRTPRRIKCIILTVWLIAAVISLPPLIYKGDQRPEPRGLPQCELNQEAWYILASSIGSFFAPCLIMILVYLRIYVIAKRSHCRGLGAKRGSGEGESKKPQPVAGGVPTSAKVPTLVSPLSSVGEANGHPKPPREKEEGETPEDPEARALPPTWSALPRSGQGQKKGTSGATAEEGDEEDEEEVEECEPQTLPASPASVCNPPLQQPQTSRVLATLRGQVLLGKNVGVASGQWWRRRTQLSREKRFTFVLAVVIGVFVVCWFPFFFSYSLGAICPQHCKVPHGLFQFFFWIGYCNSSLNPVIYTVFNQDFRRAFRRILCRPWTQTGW
- Sequence (P22909 whole entry): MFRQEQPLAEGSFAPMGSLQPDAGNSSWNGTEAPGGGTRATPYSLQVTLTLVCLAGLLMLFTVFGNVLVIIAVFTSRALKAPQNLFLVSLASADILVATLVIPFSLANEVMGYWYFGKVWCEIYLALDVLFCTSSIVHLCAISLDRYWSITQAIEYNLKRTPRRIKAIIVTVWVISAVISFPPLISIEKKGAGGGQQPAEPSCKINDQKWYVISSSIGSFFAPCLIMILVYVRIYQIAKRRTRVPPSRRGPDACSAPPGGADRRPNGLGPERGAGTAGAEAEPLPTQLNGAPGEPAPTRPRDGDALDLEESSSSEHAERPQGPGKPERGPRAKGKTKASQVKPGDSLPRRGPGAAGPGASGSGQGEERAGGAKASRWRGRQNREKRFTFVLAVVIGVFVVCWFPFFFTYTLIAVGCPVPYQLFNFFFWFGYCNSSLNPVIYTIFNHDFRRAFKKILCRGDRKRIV
- experiment: Displacement of [3H]clonidine from Alpha-2 adrenergic receptor of rat cortex membrane
So basically: is Log Ki under -7? Then met. Not under? Then not met.

Worked cases, answers included:
>  <molecule>
CC(Oc1ccccc1-c1ccccc1)C1=NCCN1 (stereo not drawn) [BIPHENYLINE]

>  <group>
met

$$$$
>  <molecule>
CC(Oc1ccc(-c2ccccc2)cc1)C1=NCCN1 (stereo not drawn)

>  <group>
met

$$$$
>  <molecule>
c1ccc(Cc2ccccc2OCC2=NCCN2)cc1

>  <group>
not met

$$$$
>  <molecule>
C[C@H](Oc1ccccc1-c1ccccc1)C1=NCCN1

>  <group>
met

$$$$

Bench note: check whether "c1ccc(OCC2=NCCN2)cc1" shows Log Ki below -7
met

Bench note: check whether "c1ccc(-c2ccccc2NCC2=NCCN2)cc1" shows Log Ki below -7
not met

---

- tested target: Adrenergic receptor alpha-2 (Rattus norvegicus) (UniProt P22086+P19328+P22909)
- experiment: pKb value using clonidine as agonist for Alpha-2 adrenergic receptor
- Type: functional
Kind request: treat 7 as inclusive, so pKb at 7 or higher is yes (1), anything lower is no (0).

Worked cases, answers included:
>  <compound>
c1ccc(OCC2=NCCN2)cc1

>  <group>
no (0)

$$$$
>  <compound>
CC(Oc1ccccc1)C1=NCCN1 (stereo unspecified)

>  <group>
yes (1)

$$$$
>  <compound>
CC(Oc1ccc(-c2ccccc2)cc1)C1=NCCN1 (stereo unspecified)

>  <group>
no (0)

$$$$

Attention now shifts to the item below.
Answer whether pKb of "c1ccc(NCC2=NCCN2)cc1" is greater than or equal to 7.
no (0)
